Sourced from ChEMBL document CHEMBL4689842

Documented Population Hoechst High Intensity Objects (%) across a set of compounds
test system: Fibroblast; experiment: Multiplex assay against human fibroblast; assay type: toxicity, cell-based; conditions: 12 h, 1 µM, compound concentration 1 uM, replicate 1
endpoint-label: Population Hoechst High Intensity Objects (%)

| compound | result-number |
| --- | --- |
| Cl.Cl.NC1(c2ccc(-c3nc4ccn5c(=O)[nH]nc5c4cc3-c3ccccc3)cc2)CCC1 | 42 |
| Nc1ccc(C(=O)Nc2cccc(-c3nc(N4CCOCC4)c4oc5ncccc5c4n3)c2)cn1 | 14 |
| CCOc1cc2ncc(C#N)c(Nc3ccc(OCc4cccc(F)c4)c(Cl)c3)c2cc1NC(=O)/C=C/CN(C)C | 14 |
| CC(C)Oc1ccc(C(=O)N[C@H](CNC(=O)CN(C)C)Cc2ccc(-c3cn4cccc([C@H](C)O)c4n3)cc2)cc1Cl [GSK-923295A] | 12 |
| CNC(=O)c1nn(C)c2c1C(C)(C)Cc1cnc(Nc3ccc(N4CCN(C)CC4)cc3)nc1-2 | 6 |
| CCC(=O)O[C@]1(C(=O)SCF)[C@H](C)C[C@H]2[C@@H]3C[C@H](F)C4=CC(=O)C=C[C@]4(C)[C@@]3(F)[C@@H](O)C[C@@]21C [FLUTICASONE PROPIONATE] | 13 |
| COc1cc(N2CCC(N(C)C)CC2)ccc1Nc1ncc(Cl)c(Nc2ccccc2P(C)(C)=O)n1 | 14 |
| Cc1cc2c(cc1N1C(=O)c3cccc4c(CCCO)ccc(c34)C1=O)n(C)c(=O)n2C | 17 |
